Sourced from patent US11225484B2

- assay_target: Human M4 (Homo sapiens, UniProt P08173)
- Construct: expressed in transfected cells; host or cells: CHO-K1 (ATCC), co-transfected with chimeric G protein Gqi5
- Sequence (P08173 1-479): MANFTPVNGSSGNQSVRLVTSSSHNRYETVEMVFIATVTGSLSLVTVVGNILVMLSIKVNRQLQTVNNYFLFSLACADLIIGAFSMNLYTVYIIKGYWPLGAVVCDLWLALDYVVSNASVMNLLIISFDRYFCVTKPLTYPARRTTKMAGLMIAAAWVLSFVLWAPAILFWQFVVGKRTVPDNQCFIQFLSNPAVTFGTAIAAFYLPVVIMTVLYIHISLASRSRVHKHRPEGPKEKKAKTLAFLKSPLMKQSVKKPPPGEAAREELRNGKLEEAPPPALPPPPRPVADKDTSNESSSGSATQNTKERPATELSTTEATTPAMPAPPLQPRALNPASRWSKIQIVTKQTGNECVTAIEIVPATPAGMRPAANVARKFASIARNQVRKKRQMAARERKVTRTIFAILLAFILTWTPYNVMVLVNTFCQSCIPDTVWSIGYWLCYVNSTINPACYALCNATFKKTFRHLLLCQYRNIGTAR
- method_summary: mAChR M4 cell-based functional assay (calcium flux, human M4/Gqi5/CHO cells)
- experimental_conditions: CHO; % ACh maximum at 30 μM; read-out: Emin (%) human M4
assay_metric: remaining activity at 30 µM (%)

Answered cases to consult:
> print(dat)
                                   compound  measurement
1  Cc1cnn(C)c1-c1ccc(N2CCC3CN(CCc4ccccc4)CC32)nn1 (centres unmarked)         7.19
2  Fc1ccc(Cl)c(-c2ccc(N3CCC4CN(CC56CC7CC(CC(C7)C5)C6)CC43)nn2)c1 (centres unmarked)         20.2
3  Cc1cnn(C)c1-c1ccc(N2CC[C@H]3CN(CC45CC6CC(CC(C6)C4)C5)C[C@H]32)nn1         3.91
4  Cc1cnn(C)c1-c1ccc(N2CCC3CN(CC(c4ccccc4)c4ccccc4)CC32)nn1 (centres unmarked)         8.96
5  CC/C=C\CCCN1CC2CCN(c3ccc(-c4c(C)cnn4C)nn3)C2C1 (centres unmarked)         15.1
6  Cc1cnn(C)c1-c1ccc(N2CCC3CN(Cc4ccccc4)CC32)nn1 (centres unmarked)         46.7
7  Cc1cnn(C)c1-c1ccc(N2CCC3CN(CCC(C)(C)C)CC32)nn1 (centres unmarked)          8.8
8  Cc1cnn(C)c1-c1ccc(N2CC[C@@H]3CN(CC45CC6CC(CC(C6)C4)C5)C[C@@H]32)nn1         4.08

(I) Cc1cnn(C)c1-c1ccc(N2CCC3CN(CC(C)c4ccccc4)CC32)nn1 (centres unmarked)
(II) CCc1ccncc1-c1ccc(N2CCC3CN(CC45CC6CC(CC(C6)C4)C5)CC32)nn1 (centres unmarked)
(III) Cc1cnn(C)c1-c1ccc(N2CCC3CN(CC4CCOCC4)CC32)nn1 (centres unmarked)
input: Ranking field: remaining activity at 30 µM; order: falling. Give the order by naming the labels one after another as requested.
output: III, I, II

(I) Cc1cnn(C)c1-c1ccc(N2CCC3CN(CC4CCN(Cc5ccccc5)CC4)CC32)nn1 (centres unmarked)
(II) Cc1cnn(C)c1-c1ccc(N2CCC3CN(CCCC(C)(C)C)CC32)nn1 (centres unmarked)
input: Looking only at measured remaining activity at 30 µM, which entry is lower, I or II ? Record your answer as the label of the chosen record.
output: II
